- Tested on: MIA PaCa-2
- PROTOCOL DESCRIPTION: Growth inhibition of human MiaPaCa2 cells after 3 hrs by MTT assay
- Format: functional, cell-based
- PROTOCOL CONDITIONS: MIA PaCa-2, 3 h
I'd appreciate it if you could supply pIC50 values for the items below.
Just the number, please; pIC50 means minus log10 of the concentration in mol/L.

Prompt line: Recorded pIC50 of "COc1cccc2c1C(=O)c1c(O)c3c(c(O)c1C2=O)C[C@@](O)(C(=O)CO)C[C@@H]3O[C@H]1C[C@H](N)[C@H](O)[C@H](C)O1" , please.
Response line: 6.50

Prompt line: Then "COc1cccc2c1C(=O)c1c(O)c3c(c(O)c1C2=O)C[C@@](O)(C(=O)CO)C[C@@H]3O[C@H]1C[C@@H]2NCO[C@@H]2[C@H](C)O1" ?
Response line: 8.50

----------
- Test system: BXPC-3
- PROTOCOL DESCRIPTION: Growth inhibition of human BxPc3 cells after 3 hrs by MTT assay
- Type: functional, cell-based
- PROTOCOL CONDITIONS: BXPC-3, 3 h
MEASUREMENT TYPE: IC50 (nM)
Numeric only. Scale: nM

Prompt line: Given the compound "COc1cccc2c1C(=O)c1c(O)c3c(c(O)c1C2=O)C[C@@](O)(C(=O)CO)C[C@@H]3O[C@H]1C[C@@H]2NCO[C@@H]2[C@H](C)O1" , what is its reported IC50?
Response line: 10

Each recorded value in this set is attributed to ChEMBL document CHEMBL1148774.
